Taken from ChEMBL document CHEMBL3351523.

Quick reference: CC50 of the listed items.
# method.notes: Cytotoxicity against mock-infected african green monkey Vero 76 cells after 48 to 96 hrs by MTT assay
# Type: cell-based
# experimental.setup: chlorocebus sabaeus, mock-infected Vero 76 cells

Some entries whose results are on file:
>>> print(df.to_string())
                                   molecule  reported_value
0  Clc1cc2nc(Cc3ccc(Br)cc3)n(C[C@@H]3CCCN4CCCC[C@H]34)c2cc1Cl        > 100 µM
1  FC(F)(F)c1ccc2c(c1)nc(C(F)(F)F)n2C[C@@H]1CCCN2CCCC[C@H]12           90 µM
2  FC(F)(F)c1ccc2c(c1)nc(Cc1ccc(Cl)c(Cl)c1)n2C[C@@H]1CCCN2CCCC[C@H]12        > 100 µM
3  c1ccc(-c2nc3ccccc3n2[C@H]2CCCN3CCCC[C@H]23)cc1        ≥ 100 µM
4  O=c1cnn([C@@H]2O[C@H](CO)[C@@H](O)[C@H]2O)c(=O)[nH]1 [6-AZAURIDINE]           20 µM

IN: Entry "c1ccc(Cn2c(-c3ccccc3)nc3ccccc32)cc1" has what CC50?
OUT: 87 µM

IN: Entry NC(=O)c1ncn([C@@H]2O[C@H](CO)[C@@H](O)[C@H]2O)n1 [RIBAVIRIN] has what CC50?
OUT: > 100 µM

IN: Entry c1ccc2[nH]c(C3CCCCO3)nc2c1 (centres undefined) has what CC50?
OUT: > 100 µM

IN: Entry "c1ccc2[nH]c(C[C@@H]3CCCN4CCCC[C@H]34)nc2c1" has what CC50?
OUT: > 100 µM

###

# method.notes: Cytotoxicity against mock-infected african green monkey Vero 76 cells after 48 to 96 hrs by MTT assay
# Type: cell-based
# experimental.setup: chlorocebus sabaeus, mock-infected Vero 76 cells
Quick reference: CC50 of the listed items.

In [3]: df
Out[3]:
               compound  observable  reported_value
0  CCOCc1nc2ccccc2[nH]1        CC50        > 100 µM

IN: Entry "O=C1c2ccccc2-n2c(nc3cccnc32)CN1C[C@@H]1CCCN2CCCC[C@H]12" has what CC50?
OUT: > 90 µM

IN: Entry Clc1ccc2[nH]c(CCCC3NCC4CNCC3C4)nc2c1 (stereo not drawn) has what CC50?
OUT: > 100 µM

###

# System: Bovine viral diarrhea virus 1
# method.notes: Antiviral activity against Bovine viral diarrhea virus infected in MDBK cells assessed as inhibition of virus-induced cytopathogenicity after 3 to 4 days by MTT assay
# Type: functional, organism-based
# experimental.setup: Bovine viral diarrhea virus isolates and strains
pEC50: −log10 of the molar value.
observable: pEC50

>>> print(df.to_string())
                                   compound  reported_value
0  COc1ccc(Cc2nc3cc(C(F)(F)F)ccc3n2C[C@@H]2CCCN3CCCC[C@H]23)cc1          < 4.00
1  CC1(c2nc3ccccc3[nH]2)CCC(C(N)=O)C(C)(C)O1 (centres undefined)          < 4.00
2  CC(CC(=O)O)n1c(Cc2ccc(Cl)cc2)nc2ccccc21 (centres undefined)          < 4.00
3  c1ccc(-n2c(C[C@@H]3CCCN4CCCC[C@H]34)nc3ccccc32)cc1            4.05

IN: Entry "COCCn1c(Cc2ccc(Cl)c(Cl)c2)nc2cc(C(F)(F)F)ccc21" has what pEC50?
OUT: < 4.00

IN: Entry CC1(c2nc3cc(Cl)c(Cl)cc3[nH]2)CCC(CO)C(C)(C)O1 (centres undefined) has what pEC50?
OUT: 4.34

IN: Entry "c1ccc2[nH]c(CC3CCCC3)nc2c1" has what pEC50?
OUT: < 4.00

IN: Entry "Clc1ccc2nc(-c3ccccc3)n([C@H]3CCCN4CCCC[C@H]34)c2c1" has what pEC50?
OUT: 4.10

IN: Entry c1ccc2[nH]c(CCCC3NCC4CC3CN3CCCCC43)nc2c1 (centres undefined) has what pEC50?
OUT: 4.03

IN: Entry "CCCCn1c(Cc2ccc(Cl)c(Cl)c2)nc2cc(C(F)(F)F)ccc21" has what pEC50?
OUT: < 4.00

IN: Entry "Nc1ccc(Cc2nc3ccccc3[nH]2)cc1" has what pEC50?
OUT: < 4.00

IN: Entry "CC(=O)Nc1ccc(Cc2nc3ccccc3[nH]2)cc1" has what pEC50?
OUT: < 4.00

IN: Entry "Cc1nc2cc(C(F)(F)F)ccc2n1C[C@@H]1CCCN2CCCC[C@H]12" has what pEC50?
OUT: < 4.00

IN: Entry "Nc1ccc(Cc2nc3cc(C(F)(F)F)ccc3[nH]2)cc1" has what pEC50?
OUT: < 4.00

IN: Entry "COc1ccc(-c2nc3cc(Cl)ccc3n2[C@@H]2CCCN3CCCC[C@H]23)cc1" has what pEC50?
OUT: < 4.00

IN: Entry "COc1ccc(Cc2nc3cc(C(F)(F)F)ccc3[nH]2)cc1" has what pEC50?
OUT: < 4.00

IN: Entry "O=c1cnn([C@@H]2O[C@H](CO)[C@@H](O)[C@H]2O)c(=O)[nH]1" has what pEC50?
OUT: < 4.00

IN: Entry "COc1c(C)c2c(c(O)c1C/C=C(\C)CCC(=O)O)C(=O)OC2" has what pEC50?
OUT: < 4.00

IN: Entry "FC(F)(F)c1ccc2c(c1)nc(CC1=CCCC1)n2C[C@@H]1CCCN2CCCC[C@H]12" has what pEC50?
OUT: < 4.00

IN: Entry "FC(F)(F)c1ccc2c(c1)nc(-c1ccc(Cl)cc1)n2C[C@@H]1CCCN2CCCC[C@H]12" has what pEC50?
OUT: < 4.00

IN: Entry "COc1ccc(-c2nc3cc(C(F)(F)F)ccc3n2C[C@@H]2CCCN3CCCC[C@H]23)cc1" has what pEC50?
OUT: < 4.00

IN: Entry "CCN(CC)CCCn1c(-c2ccc(OC)cc2)nc2cc(C(F)(F)F)ccc21" has what pEC50?
OUT: < 4.00

IN: Entry FC(F)(F)c1ccc2[nH]c(C3CCCCO3)nc2c1 (centres undefined) has what pEC50?
OUT: < 4.00

IN: Entry Clc1ccc2[nH]c(C3CCCCO3)nc2c1 (centres undefined) has what pEC50?
OUT: < 4.00

###

# method.notes: Selectivity index, ratio of CC50 for african green monkey Vero 76 cells to EC50 for Coxsackievirus B5
# Assay type: toxicity, cell-based
# experimental.setup: read-out: Ratio CC50/EC50
observable: selectivity ratio

>>> df
                      smiles_representation  reported_value
0   COc1ccc(Cc2nc3cc(C(F)(F)F)ccc3[nH]2)cc1             4.6
1  COc1ccc(-c2nc3cc(C(F)(F)F)ccc3n2C[C@H]2CCCN3CCCC[C@H]23)cc1          > 1.85
2  Clc1ccc2nc(-c3ccccc3)n([C@@H]3CCCN4CCCC[C@H]34)c2c1          > 3.12
3  c1ccc(-n2c(C[C@H]3CCCN4CCCC[C@H]34)nc3ccccc32)cc1          > 5.88
4   FC(F)(F)c1ccc2[nH]c(Cc3ccc(Cl)cc3)nc2c1            2.69
5      Nc1ccc(Cc2nc3cc(Cl)c(Cl)cc3[nH]2)cc1            6.67

Now turn to the next compound.
IN: Entry "Clc1cc2nc(Cc3ccc(Br)cc3)n(C[C@@H]3CCCN4CCCC[C@H]34)c2cc1Cl" has what selectivity ratio?
OUT: > 2

###

# System: Respiratory syncytial virus
# method.notes: Antiviral activity against Respiratory syncytial virus infected in african green monkey Vero 76 cells assessed as reduction in plaque number after 5 days by plaque reduction assay
# Format: functional, organism-based
# experimental.setup: human respiratory syncytial virus, 120 h
Quick reference: EC50 of the listed items.

Some entries whose results are on file:
In [3]: df
Out[3]:
                                   compound  observable  reported_value
0  C[C@@]1(O)[C@H](O)[C@@H](CO)O[C@H]1n1cnc2c(=O)[nH]c(N)nc21 [2'-B-METHYL-GUANOSINE]        EC50        > 100 µM
1  COc1ccc(-c2nc3cc(C(F)(F)F)ccc3n2C[C@@H]2CCCN3CCCC[C@H]23)cc1        EC50        > 100 µM
2   FC(F)(F)c1ccc2[nH]c(Cc3ccc(Cl)cc3)nc2c1        EC50        > 100 µM
3  O=C1c2ccccc2-n2c(nc3cccnc32)CN1C[C@@H]1CCCN2CCCC[C@H]12        EC50        > 100 µM
4  Nc1nc2c(ncn2COCCO)c(=O)[nH]1 [ACYCLOVIR]        EC50        > 100 µM
5              Nc1ccc(Cc2nc3ccccc3[nH]2)cc1        EC50        > 100 µM
6  FC(F)(F)c1ccc2c(c1)nc(Cc1ccc(Cl)cc1)n2C[C@@H]1CCCN2CCCC[C@H]12        EC50           15 µM

Now turn to the next compound.
IN: Please state recorded EC50 (tested on Respiratory syncytial virus) of "Cc1ccc2nc(-c3ccc(F)cc3)n([C@H]3CCCN4CCCC[C@H]34)c2c1"
OUT: 63 µM
